Experiment: chemical genetic growth profiling, strain panel (AID 1159580);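 note: tested at 20 µM; growth read once vehicle control cultures reached saturation at 30 °C; 1 = growth at the plate median or of vehicle wells; lower values mean less growth of the strain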
Details: S. cerevisiae deletion strains, growth OD, locus YOL006C, strain TOP1
In all, about 5,500 compounds went through this assay and about 2,000 (36%) were called active. Not shown: some 18% with an inconclusive outcome. Cut-off read from the data, not from the text of the source: active = normalized growth mostly below about 0.91 (no sharp cut-off); inconclusive = no clear call, values can overlap the other calls; inactive = mostly above about 0.92. Some of the results follow.
Your answer must be one of the following: YES (active), NO (inactive)

Study these solved cases before continuing.
N#Cc1ccc([N+](=O)[O-])s1 : YES
Cc1cc(=O)c2c(o1)-c1c(cc(O)c(O)c1C(=O)O)OC2 : NO
CC(=O)O[C@@H]1CC2C(C)(C)[C@H](O)C[C@H](O)[C@]2(C)C2CC[C@@]3(C)[C@H](c4ccoc4)OC(=O)[C@H]4O[C@]43[C@@]21C (stereo not given in full) : NO
Clc1cccc(-c2csc(Nc3cccnc3)n2)c1 : NO
COc1cccc(-c2cc(=O)c3cc(OC)ccc3o2)c1 : NO

Which result was noted for this compound in the test: CSc1nc(N)nc(C(C)(C)C)n1 NO

Which result was noted for this compound in the test: CC(=O)O[C@@H]1CC2C(C)(C)CCC(=O)[C@]2(C)C2CC[C@@]3(C)[C@H](c4ccoc4)OC(=O)C4OC43[C@@]21C (stereo not given in full) NO

Which result was noted for this compound in the test: CC(C)=CCc1c2c(c(O)c3c(=O)c(O)c(-c4ccccc4)oc13)C=CC(C)(C)O2 YES

Which result was noted for this compound in the test: Clc1ccc(-c2csc(-c3ccno3)n2)s1 YES

Which result was noted for this compound in the test: CC(=O)O[C@H]1C[C@@]2(C)[C@H](c3ccoc3)OC(=O)[C@H]3O[C@]32[C@@]2(C)C1[C@]1(C)C(C[C@H]2OC(C)=O)C(C)(C)[C@H](OC(C)=O)C[C@@H]1OC(C)=O (stereo not given in full) NO

* * *

Test: chemical genetic growth profiling, strain panel (AID 1159580)
Conditions: S. cerevisiae deletion strains, growth OD, locus YCL061C, strain MRC1, active compounds read low
Hit rate of the full screen: of about 5,500 compounds, about 2,000 (36%) were called active. About 18% were inconclusive and are not listed. This is one part of the list.
READOUT NAME: normalized growth
Lab note: record just the number, no unit beside it.

Below are worked cases with known answers.
CN1CCN2c3ccccc3Cc3ccccc3C2C1 (configuration not stated) : 0.999
COc1c(O)cccc1O : 1.02
C=CCc1ccccc1OCC(O)CNC(C)C (configuration not stated) : 0.999
Nc1nc(N)c2nc(-c3ccccc3)c(N)nc2n1 : 1.01

Bench note: what normalized growth did O=C(O)c1cn(-c2ccc(F)cc2)c2cc(N3CCNCC3)c(F)cc2c1=O show? 0.969

Bench note: what normalized growth did COc1ccc(C(=O)/C=C/c2ccccc2)cc1 show? 0.846

Bench note: what normalized growth did COc1c(O)cc2c(-c3ccccc3)cc(=O)oc2c1OC show? 0.994

* * *

Assay: chemical genetic growth profiling, strain panel (AID 1159580)
Settings: S. cerevisiae deletion strains, growth OD, locus YBR231C, strain swc5
The campaign covered roughly 5,500 compounds. About 2,000 (36%) were called active. Inconclusive results (about 18%) are left out. Rule as the data show it: active = normalized growth mostly below about 0.91 (no sharp cut-off); inconclusive = no clear call, values can overlap the other calls; inactive = mostly above about 0.92. This is one part of the list.
Your answer must be one of the following: true (active), false (inactive)

CC(=O)O.CC(=O)O.[Cd] : true
CC1(C)O[C@@H]2CC3C4C[C@H](F)C5=CC(=O)C=C[C@]5(C)[C@@]4(F)[C@@H](O)C[C@]3(C)[C@]2(C(=O)CO)O1 (some centres not stated) : false
CC1=CCc2c(cc3oc(C)cc(=O)c3c2O)OC1 : false
C/C(=C\C(=O)OCCCCCCCCC(=O)O)C[C@@H]1OC[C@H](C[C@@H]2O[C@H]2[C@@H](C)[C@H](C)O)[C@@H](O)[C@H]1O : false
Nc1ccc(C(=O)O)c(O)c1 : false

Which result was noted for this compound in the test: CC[N+]1(C)CCCC(OC(=O)C(O)(c2ccccc2)c2ccccc2)C1 (configuration not stated) false

Which result was noted for this compound in the test: O=c1[nH]c2cc(Cl)c(Cl)cc2[nH]c1=O false

Which result was noted for this compound in the test: O=C(O)c1nc2cc(Cl)c(Cl)cc2[nH]c1=O false

Which result was noted for this compound in the test: CC(=O)Oc1c(-c2ccccc2)oc2c(CC=C(C)C)c3c(c(OC(C)=O)c2c1=O)C=CC(C)(C)O3 false

* * *

Assay: chemical genetic growth profiling, strain panel (AID 1159580);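 note: tested at 20 µM; growth read once vehicle control cultures reached saturation at 30 °C; 1 = growth at the plate median or of vehicle wells; lower values mean less growth of the strain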
Details: S. cerevisiae deletion strains, growth OD, locus YJL154C, strain vps35
The whole screen tested about 5,500 compounds, of which about 2,000 (36%) were called active. About 18% were inconclusive and are not listed. Rule as the data show it: active = normalized growth mostly below about 0.91 (no sharp cut-off); inconclusive = no clear call, values can overlap the other calls; inactive = mostly above about 0.92. Some of the results follow.
Your answer must be one of the following: t = active, f = inactive

Study these solved cases before continuing.
COCCOC(=O)C1=C(C)NC(C)=C(C(=O)OC(C)C)C1c1cccc([N+](=O)[O-])c1 (stereo not given) : f
COc1cc([C@@H]2c3cc4c(cc3C(O[C@@H]3O[C@@H]5CO[C@@H](c6cccs6)OC5[C@H](O)[C@H]3O)C3COC(=O)[C@@H]32)OCO4)cc(OC)c1O (stereo not given in full) : f
O=C(/C=C/c1ccccc1)c1ccc(O)cc1 : t
[N-]=[N+]=CC(=O)OCC(N)C(=O)O (stereo not given) : f
O=C1CN2Cc3c(ccc(Cl)c3Cl)N=C2N1 : f

Which result was noted for this molecule in the test: CC(C)(Oc1ccc(Cl)cc1)C(=O)O f

Which result was noted for this molecule in the test: O=c1oc2ccccc2c(O)c1Cc1c(O)c2ccccc2oc1=O f

Which result was noted for this molecule in the test: COc1c2c(cc3c1OCO3)CC[N+](C)=C2 f

Which result was noted for this molecule in the test: CC(=O)Oc1c(-c2ccccc2)oc2c(CC=C(C)C)c3c(c(OC(C)=O)c2c1=O)C=CC(C)(C)O3 f

Which result was noted for this molecule in the test: CCCN1C[C@H](CSC)C[C@@H]2c3cccc4[nH]cc(c34)C[C@H]21 f

* * *

Assay: chemical genetic growth profiling, strain panel (AID 1159580);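 note: tested at 20 µM; growth read once vehicle control cultures reached saturation at 30 °C; 1 = growth at the plate median or of vehicle wells; lower values mean less growth of the strain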
Conditions: S. cerevisiae deletion strains, growth OD, locus YPR025C, strain CCL1
Out of some 5,500 compounds screened, about 2,000 (36%) were called active. Roughly 18% stayed inconclusive and do not appear here. Cut-off read from the data, not from the text of the source: active = normalized growth mostly below about 0.91 (no sharp cut-off); inconclusive = no clear call, values can overlap the other calls; inactive = mostly above about 0.92. This is one part of the list.
Your answer must be one of the following: active, inactive

Cc1ccc(C(=O)O/N=C(/N)CSc2ncccc2C(F)(F)F)cc1 : inactive
N#CCCCCOc1ccc2c(=O)cc(-c3ccccc3)oc2c1 : inactive
N/C(CSc1ccc(Cl)cc1)=N/OC(=O)c1ccc(C(F)(F)F)cc1 : active
O=C(NNC(=O)c1csc(-c2cccs2)n1)c1ccc(C(F)(F)F)cc1 : inactive
N=c1ccc2nc3c(Cl)c4c(c(Cl)c3oc-2c1S(=O)(=O)O)Nc1ccc(N)c(S(=O)(=O)O)c1O4 : inactive

Which result was noted for this molecule in the test: Cc1cc(C(=O)O/N=C(/N)CSc2ncccc2C(F)(F)F)no1 inactive

Which result was noted for this molecule in the test: N#Cc1c(Br)cnn1Cc1cc(C(F)(F)F)cc(C(F)(F)F)c1 inactive

Which result was noted for this molecule in the test: COc1cc(NC(=S)Nc2ccccc2OC(F)(F)F)cc(C(F)(F)F)c1 inactive

Which result was noted for this molecule in the test: CCn1nc(C)cc1-c1nnc(Sc2ncc([N+](=O)[O-])s2)n1C inactive

* * *

Experiment: chemical genetic growth profiling, strain panel (AID 1159580);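 note: tested at 20 µM; growth read once vehicle control cultures reached saturation at 30 °C; 1 = growth at the plate median or of vehicle wells; lower values mean less growth of the strain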
Conditions: S. cerevisiae deletion strains, growth OD, locus YPR163C, strain tif3
The campaign covered roughly 5,500 compounds. About 2,000 (36%) were called active. Another 18% or so got no clear call; they are omitted. Cut-off read from the data, not from the text of the source: active = normalized growth mostly below about 0.91 (no sharp cut-off); inconclusive = no clear call, values can overlap the other calls; inactive = mostly above about 0.92. The list shows a part of the results.
Your answer must be one of the following: 1 (active), 0 (inactive)

Study these solved cases before continuing.
COc1ccc(-c2cc(=O)c3ccccc3o2)cc1OC : 0
O=c1[nH]c2cc(Cl)c(Cl)cc2[nH]c1=O : 0
CC1=CCc2c(cc3oc(C)cc(=O)c3c2O)OC1 : 0
CC(=O)O[C@H]1C[C@H](O[C@H]2[C@@H](O)C[C@H](O[C@H]3[C@@H](O)C[C@H](O[C@H]4CC[C@@]5(C)C(CCC6C5C[C@@H](O)[C@]5(C)[C@@H](C7=CC(=O)OC7)CC[C@]65O)C4)O[C@@H]3C)O[C@@H]2C)O[C@H](C)[C@H]1O[C@@H]1O[C@H](CO)[C@@H](O)[C@H](O)[C@H]1O (some centres not stated) : 0

Which result was noted for this molecule in the test: Cc1cc(=O)c2c(O)c3c(cc2o1)OCC(C)CC3 (configuration not stated) 1

Which result was noted for this molecule in the test: Cc1cc2cc3c(C)cc(=O)oc3c(C)c2o1 0

Which result was noted for this molecule in the test: OC1C(O)C(O)C(O)C(O)C1O (configuration not stated) 0

Which result was noted for this molecule in the test: Cc1cc(=O)c2c(O)c3c(cc2o1)OC(C)(C)CC3 0

Which result was noted for this molecule in the test: C[C@@H]1CC[C@@]2(OC1)OC1C(O)C3C4CC[C@H]5C[C@H](O[C@@H]6O[C@H](CO)[C@H](O[C@@H]7O[C@H](CO)[C@@H](O)[C@H](O[C@@H]8OC[C@@H](O)[C@H](O)[C@H]8O)[C@H]7O[C@@H]7O[C@H](CO)[C@H](O)[C@H](O[C@@H]8O[C@H](CO)[C@@H](O)[C@H](O)[C@H]8O)[C@H]7O)[C@H](O)[C@H]6O)[C@H](O)C[C@]5(C)C4CC[C@]3(C)C1[C@@H]2C (some centres not stated) 1

Which result was noted for this molecule in the test: Cn1nnnc1SCC1=C(C(=O)O)N2C(=O)C(NC(=O)C(O)c3ccccc3)C2SC1 (configuration not stated) 0

Which result was noted for this molecule in the test: COc1ccc(-c2cc(=O)c3ccccc3o2)cc1 1

Which result was noted for this molecule in the test: CC(C)Oc1ccc2c(=O)cc(-c3ccccc3)oc2c1 1
